Sourced from PubChem BioAssay (NCI)

experiment.summary: NCI Yeast Anticancer Drug Screen. Data for the cln2 rad14 strain (AID 165);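 also: 0% = growth equal to vehicle treated cultures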
condition.label: S. cerevisiae cln2 rad14 strain, at 50.0 µM, active compounds read high
About 79,000 compounds went through this panel and 15% of them were active in at least one assay; those are over-represented in the sample as a whole. Activity calls are given as the source filed them. Rule as the data show it: active = growth inhibition above about 70%; inactive = the rest.
parameter.measured: growth inhibition

Looking up O=C(O)c1cc([N+](=O)[O-])c(Cl)c([N+](=O)[O-])c1Cl , I found its growth inhibition recorded as 43.1% (inactive)

Looking up C1CC[N-]CC1.C1CC[N-]CC1.N#CO.[Ag] , I found its growth inhibition recorded as 99% (active)

Looking up Cc1cc(C)c(O)c(C)c1.[Hg] , I found its growth inhibition recorded as 99.4% (active)

Looking up Cc1cccc2cc3ccccc3cc12 , I found its growth inhibition recorded as 91.1% (active)

Looking up CCCCCCCC/C=C\CCCCCCCCN1CC(C(=O)[O][Pb]([CH2]C)([CH2]C)[CH2]C)CC1=O (stereo not given) , I found its growth inhibition recorded as 9.45% (inactive)

Looking up CNCC(O)c1ccc(O)c(O)c1.[Pt].c1ccc([PH+](c2ccccc2)c2ccccc2)cc1.c1ccc([PH+](c2ccccc2)c2ccccc2)cc1 , I found its growth inhibition recorded as 98.8% (active)

Looking up Cc1ccc([C@H]2N[C@@H]2c2ccccn2)cc1 , I found its growth inhibition recorded as 30.1% (inactive)

Looking up c1ccc2cc3n[se]nc3cc2c1 , I found its growth inhibition recorded as -2.35% (inactive)

Looking up CC(=O)Nc1cccc([As+](C)(c2cccc(NC(C)=O)c2)c2cccc(NC(C)=O)c2)c1 , I found its growth inhibition recorded as -26% (inactive)

Looking up C=C1C(C)C2C(Cc3ccccc3)NC(=O)C23C(OC(C)=O)C=CC(C)(O)C(=O)C(C)C/C=C/C3C1O (stereo not given) , I found its growth inhibition recorded as 85.2% (active)
